METHOD: Plasma pharmacokinetic of MIV-701 after single and repeated oral administration of MIV-701 besylate salt in healthy cats
Format: in vivo
COND: cat, plasma MIV-701, oral 2 mg/kg, Day 0 (single), read-out: AUC(0-tfinal) (converted)
Structures can show the parent of a compound that is named as a salt.

>  <COMPOUND>
CC(C)C[C@H](NC(=O)c1ccc(-c2csc(N3CCN(C)CC3)n2)cc1)C(=O)N1C[C@H](F)[C@H]2OCC(O)(O)[C@H]21 [MIV-701 besylate salt]

>  <AUC(0-t)>
0.808 µM·h

$$$$

====

METHOD: Plasma pharmacokinetic of MIV-701 after single and repeated oral administration of MIV-701 besylate salt in healthy cats
Format: in vivo
COND: cat, plasma MIV-701, oral 2 mg/kg once daily, Day 13 (repeated)
Counter-ions that a name gives are not always drawn.
MEASURE NAME: Tmax at 312 h (h)

>  <COMPOUND>
CC(C)C[C@H](NC(=O)c1ccc(-c2csc(N3CCN(C)CC3)n2)cc1)C(=O)N1C[C@H](F)[C@H]2OCC(O)(O)[C@H]21 [MIV-701 besylate salt]

>  <UNIT OF MEASUREMENT>
h

>  <DATA VALUE>
2

$$$$

====

METHOD: Plasma pharmacokinetic of MIV-701 after single and repeated oral administration of MIV-701 besylate salt in healthy cats
Type: in vivo
COND: cat, plasma MIV-701, oral 10 mg/kg once daily, Day 13 (repeated)
Protocol: MIV-701 besylate salt was administered once daily for 14 days to 4 healthy cats at three increasing doses: 2 mg/kg, 10 mg/kg and 50 mg/kg. The three doses were consecutively administered for 14 days with a >5-day washout period between two dose levels. […] A calibration curve (9 points, 3 to 30 000 nM) was obtained by spiking plasma samples from naive cats with appropriate quantities of Compound I. […]
Structures can show the parent of a compound that is named as a salt.

>  <MOLECULE>
CC(C)C[C@H](NC(=O)c1ccc(-c2csc(N3CCN(C)CC3)n2)cc1)C(=O)N1C[C@H](F)[C@H]2OCC(O)(O)[C@H]21 [MIV-701 besylate salt]

>  <UNIT OF MEASUREMENT>
min

>  <Tmax at 312 h>
30

$$$$

====

METHOD: Plasma pharmacokinetic of MIV-701 after single and repeated oral administration of MIV-701 besylate salt in healthy beagle dogs
Type: in vivo
COND: dog, plasma MIV-701, oral 100 mg/kg, Day 0 (single), read-out: AUC(0-tfinal) (converted)
Description: Compound Ib besylate salt (referred to as MIV-701 besylate salt) was administered once daily for 14 days to 3 healthy beagle dogs at three different doses: 1 mg/kg, 10 mg/kg and 100 mg/kg. […] After centrifugation of blood samples plasma aliquots were stored at -20°C. […] Calibration curve (9 points, 3 to 30 000 nM) was obtained by spiking plasma samples from naive dogs with appropriate quantities of Compound Ib. […]
Counter-ions that a name gives are not always drawn.

>  <COMPOUND>
CC(C)C[C@H](NC(=O)c1ccc(-c2csc(N3CCN(C)CC3)n2)cc1)C(=O)N1C[C@H](F)[C@H]2OCC(O)(O)[C@H]21 [MIV-701 besylate salt]

>  <AUC(0-t) [µM·h]>
19.4

$$$$

This collection of values is drawn from patent EP4613273A1.
